test system: giant foxtail; assay: Test A postemergence; type: in vivo, Setaria faberii; conditions: 1000 g ai/ha, 0 to 100 scale, 0 no effect, 100 complete control
// reported Plant response rating, Foxtail, Giant per item
Reported property: Plant response rating, Foxtail, Giant

Molecular string	System tested	Obs value
Clc1cnc(Oc2ccccc2-n2cc(I)nn2)nc1	giant foxtail	90
FC(F)(F)COc1cccc(Oc2ncc(Cl)cn2)c1-n1cc(Br)cn1	giant foxtail	70
O=Cc1cn(-c2c(F)cccc2Oc2ncc(Cl)cn2)nn1	giant foxtail	0
N#Cc1cnn(-c2ccccc2Oc2ncc(Cl)cn2)n1	giant foxtail	60
CCNC(=O)c1cccc(Oc2ncc(Cl)cn2)c1-n1cc(C(F)(F)F)cn1	giant foxtail	10

* * *

// reported Plant response rating, Galium per item
tested on: galium; assay: Test C postemergence; format: in vivo, Galium aparine; details: Postemergence, 62 g ai/ha; scale 0 to 100 (0 no effect, 100 complete control); 13 to 15 days

Compound	Plant response rating, Galium
N#Cc1cnn(-c2c(C#N)cccc2Oc2ncc(Cl)cn2)c1 [Compound 200]	65
Clc1cnc(Oc2cccc(Br)c2-n2cc(Cl)cn2)nc1 [Compound 221]	55
FC(F)Oc1cnn(-c2c(Cl)cccc2Oc2ncc(Cl)cn2)c1 [Compound 258]	95
N#Cc1cnn(-c2c(Oc3ncc(F)cn3)cccc2C(F)F)c1 [Compound 240]	55
FC(F)c1cnn(-c2c(Cl)cccc2Oc2ncc(Cl)cn2)c1 [Compound 192]	80
FCc1cccc(Oc2ncc(Cl)cn2)c1-n1cc(I)cn1 [Compound 245]	80

* * *

// reported Plant response rating, Blackgrass per item
system: blackgrass; assay: Test A postemergence; type: in vivo, Alopecurus myosuroides; settings: 31 g ai/ha, 0 to 100 scale, 0 no effect, 100 complete control
Reported property: Plant response rating, Blackgrass

Molecular string	System tested	Reported property	Obs value
Fc1cnc(Oc2ccccc2-n2cc(SC(F)(F)F)cn2)nc1	blackgrass	Plant response rating, Blackgrass	0
FC(F)(F)c1cnn(-c2c(Oc3ncc(Cl)cn3)cccc2-c2ncon2)c1	blackgrass	Plant response rating, Blackgrass	10
FC(F)(F)COc1cnn(-c2c(Cl)cccc2Oc2ncc(Cl)cn2)c1	blackgrass	Plant response rating, Blackgrass	20
FC(F)Oc1cnn(-c2c(Br)cccc2Oc2ncc(Cl)cn2)c1	blackgrass	Plant response rating, Blackgrass	30
CC(C)Oc1cnn(-c2c(C#N)cccc2Oc2ncc(Cl)cn2)c1	blackgrass	Plant response rating, Blackgrass	50
Fc1cccc(Oc2ncc(Cl)cn2)c1-n1cc(OC(F)F)cn1	blackgrass	Plant response rating, Blackgrass	10
N#Cc1cnn(-c2c(CF)cccc2Oc2ncc(Br)cn2)c1	blackgrass	Plant response rating, Blackgrass	0
FCCc1cn(-c2c(F)cccc2Oc2ncc(Cl)cn2)nn1	blackgrass	Plant response rating, Blackgrass	30
Fc1cnc(Oc2cccc(Cl)c2-n2cc(OC(F)F)cn2)nc1	blackgrass	Plant response rating, Blackgrass	20
Fc1cccc(Oc2ncc(Cl)cn2)c1-n1cc(C(F)F)nn1	blackgrass	Plant response rating, Blackgrass	90
Clc1cnc(Oc2ccccc2-n2ccnc2)nc1	blackgrass	Plant response rating, Blackgrass	0
Fc1cnc(Oc2cccc(Br)c2-n2cc(OCC(F)(F)F)cn2)nc1	blackgrass	Plant response rating, Blackgrass	30
FC(F)Oc1cnn(-c2c(Cl)cccc2Oc2ncc(Cl)cn2)c1	blackgrass	Plant response rating, Blackgrass	20
CCCOc1cnn(-c2c(F)cccc2Oc2ncc(F)cn2)c1	blackgrass	Plant response rating, Blackgrass	0
N#Cc1cnn(-c2c(Cl)cccc2Oc2ncc(Cl)cn2)c1	blackgrass	Plant response rating, Blackgrass	20
